- Study system: AhR (Homo sapiens)
- Protocol details: AhR antagonism in human PBMCs - inhibition of IL-22 release
- Assay type: cell-based
- Design: endogenous in cells
- Condition details: human PBMCs activated with CD3/CD28 agonist mixture, 72 hrs, IL-22 ELISA; average; read-out: hPBMC Inhibition of CD3/CD28 induced IL-22 release: av. pIC50 (converted)
Measured IC50 by item
Entry rule: numbers only, all in nM.

Query: # value lookup — system AhR (Homo sapiens), readout IC50, item Cc1ccc(-c2nc3c(c(NCCc4c[nH]c5cc(F)ccc45)n2)OCCN3)cn1 [Example 20]
Reply: 43.7

---

- Study system: AhR (Homo sapiens, UniProt P35869)
- Sequence (P35869 11-848): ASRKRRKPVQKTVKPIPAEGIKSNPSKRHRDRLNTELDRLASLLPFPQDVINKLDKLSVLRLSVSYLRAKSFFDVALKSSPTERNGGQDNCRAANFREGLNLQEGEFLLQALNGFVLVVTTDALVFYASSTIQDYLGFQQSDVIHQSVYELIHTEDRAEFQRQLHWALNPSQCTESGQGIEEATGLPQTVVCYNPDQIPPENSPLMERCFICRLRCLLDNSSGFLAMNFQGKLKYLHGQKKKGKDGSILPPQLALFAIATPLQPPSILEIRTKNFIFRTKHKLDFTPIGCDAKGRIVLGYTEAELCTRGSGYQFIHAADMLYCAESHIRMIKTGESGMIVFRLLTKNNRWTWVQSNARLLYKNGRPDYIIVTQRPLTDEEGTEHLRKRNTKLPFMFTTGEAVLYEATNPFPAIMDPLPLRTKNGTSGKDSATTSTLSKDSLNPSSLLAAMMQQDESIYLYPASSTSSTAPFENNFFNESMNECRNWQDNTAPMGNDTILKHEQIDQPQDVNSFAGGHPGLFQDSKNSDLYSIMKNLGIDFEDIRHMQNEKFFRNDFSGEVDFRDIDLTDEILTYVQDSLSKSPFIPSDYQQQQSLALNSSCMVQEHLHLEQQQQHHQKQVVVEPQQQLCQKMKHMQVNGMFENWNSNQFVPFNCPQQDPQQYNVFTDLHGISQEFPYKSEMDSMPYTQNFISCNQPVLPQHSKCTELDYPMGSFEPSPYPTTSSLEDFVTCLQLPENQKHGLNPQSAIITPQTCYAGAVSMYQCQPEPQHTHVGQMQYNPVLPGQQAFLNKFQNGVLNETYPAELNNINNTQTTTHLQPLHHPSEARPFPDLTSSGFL
- Protocol details: AhR antagonism in human PBMCs - inhibition of IL-22 release
- Assay type: cell-based
- Design: endogenous in cells
- Condition details: human PBMCs activated with CD3/CD28 agonist mixture, 72 hrs, IL-22 ELISA; average; read-out: hPBMC Inhibition of CD3/CD28 induced IL-22 release: av. pIC50 (converted)
Measurement kind: log10 IC50 (log10 of the value in nM)
All values: log10 IC50 [nM].

Solved entries (count: 5):
O=c1[nH]cc(F)cc1-c1nc2c(c(NCCc3c[nH]c4cc(F)ccc34)n1)OCCN2 = -0.19
O=c1[nH]cc(F)cc1-c1nc2c(c(N[C@@H]3CCc4[nH]c5ccccc5c4C3)n1)OCCN2 = 1.84
Fc1cncc(-c2nc(NCCc3c[nH]c4ccccc34)c3c(n2)N[C@@H](C(F)(F)F)CO3)c1 = 1.16
COC[C@@H]1COc2c(NCCc3c[nH]c4ccccc34)nc(-c3ccc(F)cc3)nc2N1 = 1.27
C[C@@H]1CNc2nc(-c3cncc(F)c3)nc(NCCc3c[nH]c4ccccc34)c2O1 = 0.60

Query: # get_value(readout='log10 IC50', item= COC[C@H]1COc2c(NCCc3c[nH]c4ccccc34)nc(-c3cncc(F)c3)nc2N1 )
Reply: -0.21

Query: # get_value(readout='log10 IC50', item= Cn1cccc(-c2nc3c(c(NCCc4c[nH]c5ccccc45)n2)OCCN3)c1=O )
Reply: 1.39

---

- Study system: AhR (Homo sapiens)
- Sequence (P35869 11-848): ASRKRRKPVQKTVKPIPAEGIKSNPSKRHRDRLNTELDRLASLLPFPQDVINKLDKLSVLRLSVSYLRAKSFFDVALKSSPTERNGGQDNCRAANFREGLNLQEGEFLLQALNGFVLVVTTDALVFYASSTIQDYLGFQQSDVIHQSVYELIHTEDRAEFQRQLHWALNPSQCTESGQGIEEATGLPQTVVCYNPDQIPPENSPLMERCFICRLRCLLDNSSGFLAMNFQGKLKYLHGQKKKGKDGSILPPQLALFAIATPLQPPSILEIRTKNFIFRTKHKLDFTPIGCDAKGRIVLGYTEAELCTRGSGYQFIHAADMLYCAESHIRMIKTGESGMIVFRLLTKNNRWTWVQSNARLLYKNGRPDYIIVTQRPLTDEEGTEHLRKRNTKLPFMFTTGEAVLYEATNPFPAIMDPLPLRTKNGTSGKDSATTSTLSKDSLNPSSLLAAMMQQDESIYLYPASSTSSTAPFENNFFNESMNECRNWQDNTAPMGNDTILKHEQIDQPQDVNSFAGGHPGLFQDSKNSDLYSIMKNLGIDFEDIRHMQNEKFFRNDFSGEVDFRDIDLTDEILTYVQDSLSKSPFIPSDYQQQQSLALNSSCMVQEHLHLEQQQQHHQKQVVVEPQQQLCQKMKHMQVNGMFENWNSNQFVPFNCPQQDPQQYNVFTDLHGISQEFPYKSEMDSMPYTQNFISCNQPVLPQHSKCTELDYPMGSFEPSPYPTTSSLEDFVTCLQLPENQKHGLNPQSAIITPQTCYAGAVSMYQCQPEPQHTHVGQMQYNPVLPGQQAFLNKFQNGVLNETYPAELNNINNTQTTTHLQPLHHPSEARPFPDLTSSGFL
- Protocol details: AhR antagonism in U937 cells (Promega P450-Glo assay)
- Format: cell-based
- Design: endogenous in cells; host or cells: U937 cells
- Condition details: CYP1A1 activity readout (Luciferin-CEE), head names VAF347, average, read-out: U937 Antagonist pIC50-VAF347: av. pIC50 (converted)
Measurement kind: IC50 (nM)
Entry rule: numbers only, all in nM.

Cc1ncc(-c2nc3c(c(NCCc4c[nH]c5ccccc45)n2)OCCN3)s1 [Example 7] = 9.12

Query: # get_value(readout='IC50', item= C[C@@H]1COc2c(NCCc3c[nH]c4ccccc34)nc(-c3cncc(F)c3)nc2N1 [Example 9] )
Reply: 0.513

Query: # get_value(readout='IC50', item= Cc1ccc(-c2nc3c(c(NCCc4c[nH]c5ccccc45)n2)OCCN3)cn1 [Example 15] )
Reply: 89.1

Query: # get_value(readout='IC50', item= COC[C@@H]1COc2c(NCCc3c[nH]c4ccccc34)nc(-c3ccc[nH]c3=O)nc2N1 [Example 26] )
Reply: 4.79

Query: # get_value(readout='IC50', item= CC1(C)COc2c(NCCc3c[nH]c4ccccc34)nc(-c3cncc(F)c3)nc2N1 [Example 31] )
Reply: 16.2

Query: # get_value(readout='IC50', item= Cc1nc(C)c(-c2nc3c(c(NCCc4c[nH]c5ccccc45)n2)OCCN3)s1 [Example 52] )
Reply: 17.8

Query: # get_value(readout='IC50', item= C[C@@H]1CNc2nc(-c3cncc(F)c3)nc(NCCc3c[nH]c4ccccc34)c2O1 [Example 30] )
Reply: 5.5

Query: # get_value(readout='IC50', item= O=c1[nH]cccc1-c1nc2c(c(NCCc3c[nH]c4cc(F)ccc34)n1)OCCN2 [Example 21] )
Reply: 2.75

---

- Study system: AhR (Homo sapiens)
- Protocol details: AhR antagonism in U937 cells (Promega P450-Glo assay)
- Assay type: cell-based
- Set-up: endogenous in cells; host or cells: U937 cells
- Condition details: CYP1A1 activity readout (Luciferin-CEE), head names VAF347, average, read-out: U937 Antagonist pIC50-VAF347: av. pIC50 (converted)
Measured IC50 by item
Entry rule: numbers only, all in nM.

Cc1ncc(-c2nc(N[C@@H]3CCc4[nH]c5ccccc5c4C3)c3c(n2)N(CCO)CCO3)s1 = 251
Fc1cc(F)cc(-c2nc3c(c(NCCc4c[nH]c5ccccc45)n2)OCCN3)c1 = 3.55
Cc1ncc(-c2nc3c(c(NC4Cc5cccc6[nH]cc(c56)C4)n2)OCCN3)s1 (centres unmarked) = 74.1
Cc1ncc(-c2nc3c(c(NCCc4c[nH]c5ccccc45)n2)OCCN3)cc1F = 33.1
Fc1cncc(-c2nc(NCCc3c[nH]c4ccccc34)c3c(n2)N[C@@H](C(F)(F)F)CO3)c1 = 2.51

Query: # get_value(readout='IC50', item= O=c1[nH]cccc1-c1nc2c(c(N[C@@H]3CCc4[nH]c5ccccc5c4C3)n1)OCCN2 )
Reply: 93.3

Query: # get_value(readout='IC50', item= O=c1[nH]cccc1-c1nc(NCCc2c[nH]c3ccccc23)c2c(n1)N[C@H](CO)CO2 )
Reply: 4.9
